# key: entry, value: growth
- Test system: 786-0 renal
- protocol: NCI-60 one-dose screen, 48 h (100 = growth as untreated, 0 = no growth, -100 = all killed)
- run_parameters: 10 µM unless noted
This is part of a sample that, as a whole, favours compounds with a hit. Of some 83,000 tested, about 20% had one in any assay.
Field format: number, assumed %, no unit text.

Would you please look over these solved cases?
>  <structure_smiles_string>
COc1ccc(-c2csc(NC(=O)Nc3nc(-c4ccc(OC)cc4)cs3)n2)cc1

>  <result_value>
97.8

$$$$
>  <structure_smiles_string>
C=CC(C)(C)n1cc(C2=C(O)C(=O)C(c3cn(C(C)(C)C=C)c4ccccc34)=C(O)C2=O)c2ccccc21

>  <result_value>
87.8

$$$$

// query Which growth reading was recorded for the molecule Nc1ncnc(Nc2ccc(C(F)(F)F)cc2)n1 ?
// result 97.7

###

- System: SK-OV-3 ovarian
- protocol: NCI-60 one-dose screen, 48 h
- run_parameters: 10 µM unless noted
Compounds without any hit were thinned out: in the full panel of roughly 83,000, 20% have a hit. Activity calls are given as the source filed them. How the source made its calls: active means growth percent below 10; inactive means the rest.
Please reply with one of these outcomes: active, inactive

Examples with answers:
>  <compound>
NCC(O)C(O)C(O)C(O)CO (stereo not given)

>  <assigned_class>
inactive

$$$$
>  <compound>
O=c1n(CC2CO2)c(=O)n(CC2CO2)n1CC1CO1 (stereo not given)

>  <assigned_class>
inactive

$$$$

// query Query: recorded result category for COc1ccc(C)cc1NC(=O)SC(C)C in this test
// result inactive

// query Query: recorded result category for OCCOc1ccc(-c2cc(-c3ccccn3)nc(-c3ccccn3)c2)cc1 in this test
// result inactive

// query Query: recorded result category for C=CC(=O)OC1CCC(C(C)(C)CC)CC1 (stereo not given) in this test
// result inactive

// query Query: recorded result category for COC(c1ccc2c(c1)OCO2)C(C)Br (stereo not given) in this test
// result inactive

// query Query: recorded result category for CCCOCc1cn[nH]n1 in this test
// result inactive

// query Query: recorded result category for C=C1CC2(OC1=O)C(=O)N(C)c1ccc(I)cc12 (stereo not given) in this test
// result inactive

// query Query: recorded result category for O=S(=O)(O)C(C(I)I)S(=O)(=O)O in this test
// result inactive

// query Query: recorded result category for Nc1nnc2cc(F)ccc2n1 in this test
// result inactive

// query Query: recorded result category for Oc1cccnc1CN1CCCC1 in this test
// result inactive

// query Query: recorded result category for CC(c1ccccc1)N1C(=O)CSC1=S (stereo not given) in this test
// result inactive

// query Query: recorded result category for Cc1ccc(Cc2ccc(C)cc2)cc1 in this test
// result inactive

// query Query: recorded result category for CC(=O)NC(O)C(Cl)Cl (stereo not given) in this test
// result active

// query Query: recorded result category for CCOC(=O)/C(C)=C\c1ccc(OC)c(OC)c1 in this test
// result inactive

// query Query: recorded result category for CN1CCCN(C(c2ccccc2)c2ccc(Cl)cc2)CC1 (stereo not given) in this test
// result inactive

// query Query: recorded result category for CCOC(=O)c1ccc(NC(=O)Nc2nccs2)cc1 in this test
// result inactive

// query Query: recorded result category for CC(C)N(C(=O)c1ccccc1)C(C)C in this test
// result inactive
